# assay-system: RET-PRKAR1A (PTC2) (Homo sapiens)
# Construct: fusion transcripts composed of the 3′ end of RET kinase domain and the 5′ end of separate partner genes; PRKAR1A N-terminal part (fusion partner); purchased Reaction Biology Corporation (assay run at the CRO); the other entry of the earlier key: PRKAR1A (P10644, cAMP-dependent protein kinase type I-alpha regulatory subunit)
# Sequence (P07949 with tags, fused parts or gaps): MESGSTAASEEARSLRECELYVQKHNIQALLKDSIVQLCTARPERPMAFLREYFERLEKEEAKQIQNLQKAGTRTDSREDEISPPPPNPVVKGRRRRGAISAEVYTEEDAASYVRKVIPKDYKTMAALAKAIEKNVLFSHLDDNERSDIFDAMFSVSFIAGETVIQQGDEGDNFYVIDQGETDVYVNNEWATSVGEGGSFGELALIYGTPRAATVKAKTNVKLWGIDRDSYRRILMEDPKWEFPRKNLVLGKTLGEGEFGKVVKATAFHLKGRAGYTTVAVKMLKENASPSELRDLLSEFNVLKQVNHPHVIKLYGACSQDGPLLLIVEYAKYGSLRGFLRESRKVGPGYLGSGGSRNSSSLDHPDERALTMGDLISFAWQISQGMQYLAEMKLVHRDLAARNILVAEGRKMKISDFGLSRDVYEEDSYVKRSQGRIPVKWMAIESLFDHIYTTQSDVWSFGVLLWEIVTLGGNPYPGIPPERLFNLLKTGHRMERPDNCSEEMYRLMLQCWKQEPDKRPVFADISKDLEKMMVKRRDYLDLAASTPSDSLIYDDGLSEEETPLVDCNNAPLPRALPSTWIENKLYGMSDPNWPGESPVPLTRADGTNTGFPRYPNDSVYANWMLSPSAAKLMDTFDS
# experiment-description: Biochemical kinase assay (Reaction Biology, 33P ATP)
# protocol-conditions: 10 μM ATP
readout-label: IC50

- molecule: "C[C@H]1CNC(=O)c2cnn3cc4c(nc23)N(Cc2cc(F)ccc2O1)[C@@H]1CCC[C@@H]1O4 [Compound 1]"
  assay-system: "RET-PRKAR1A (PTC2) (Homo sapiens)"
  IC50: "0.129 nM"

Ask: Give RET-PRKAR1A (PTC2) (Homo sapiens) IC50 for C[C@H]1CNC(=O)c2cnn3cc4c(nc23)N(Cc2cc(F)cnc2O1)[C@@H]1CCC[C@@H]1O4 [Compound 5]
Reply: 0.29 nM
